- Test system: Escherichia coli
- assay summary: Antibacterial activity against Escherichia coli CIP 54127 by broth microdilution method
- Format: functional
Overview of recorded MIC for various molecules

Example cases with answers are listed next.
molecule	MIC
CC(C)CCC[C@@H](C)[C@H]1CC[C@H]2[C@@H]3CCC4=C[C@@H](NCCCCCN)CC[C@]4(C)[C@H]3CC[C@]12C	> 50 mg/L
CC(C)CCC[C@@H](C)[C@H]1CC[C@H]2[C@@H]3CC[C@H]4C[C@@H](NCCCCCCN)CC[C@]4(C)[C@H]3CC[C@]12C	> 50 mg/L

Problem: Form field: reported MIC of CC(C)CCCC(C)C1CCC2C3CCC4CC(NCCCNCCCCNCCCN)CCC4(C)C3CCC12C (stereo unspecified)
Solution: > 50 mg/L
